Listing of entries alongside the reported viability, T/C.
- Test system: 777334-354-R2-J4-PDC tumor spheroids with HUVEC/MSC, viability;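 further: spheroids exposed to compounds for 7 days before readout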
- Test description: Anticancer human tumor 777334-354-R2-J4-PDC patient-derived pancreatic adenocarcinoma cell line growth inhibition [GQUAD]
- Study conditions: second compound 0.316 µM; first compound 0.0316 µM; stronger effect = lower value
Just the number please, in %, no unit attached.

Use the examples below as a reference point.
CC(C)(O)C1CCC(Nc2ccc3ncc(-c4cccc(C(F)(F)F)c4)n3n2)CC1 (stereo not drawn) + CN(C)c1ccc(Nc2c3ccc(NC(=O)CCN4CCCC4)cc3nc3cc(NC(=O)CCN4CCCC4)ccc23)cc1 | 89
Nc1ccn(C2OC(CO)C(O)C2(F)F)c(=O)n1 (stereo not drawn) + Cc1cnc(CNC(=O)c2c(=O)c3ccc(N4CCCN(C)CC4)nc3n3c2sc2ccccc23)cn1 | 81.5

Consider the record given below.
Look at this molecule and give its reported viability, T/C. C=CC(=O)N1CCN(c2nc(=O)n(-c3c(C)ccnc3C(C)C)c3nc(-c4c(O)cccc4F)c(F)cc23)C(C)C1 (stereo not drawn) + Cc1cnc(CNC(=O)c2c(=O)c3ccc(N4CCCN(C)CC4)nc3n3c2sc2ccccc23)cn1
81.2

Reference source: PubChem BioAssay AID2060499
